Please provide measured Ki for the entries that follow.
Biological target: UniProt P42866
Sequence (P42866 whole entry): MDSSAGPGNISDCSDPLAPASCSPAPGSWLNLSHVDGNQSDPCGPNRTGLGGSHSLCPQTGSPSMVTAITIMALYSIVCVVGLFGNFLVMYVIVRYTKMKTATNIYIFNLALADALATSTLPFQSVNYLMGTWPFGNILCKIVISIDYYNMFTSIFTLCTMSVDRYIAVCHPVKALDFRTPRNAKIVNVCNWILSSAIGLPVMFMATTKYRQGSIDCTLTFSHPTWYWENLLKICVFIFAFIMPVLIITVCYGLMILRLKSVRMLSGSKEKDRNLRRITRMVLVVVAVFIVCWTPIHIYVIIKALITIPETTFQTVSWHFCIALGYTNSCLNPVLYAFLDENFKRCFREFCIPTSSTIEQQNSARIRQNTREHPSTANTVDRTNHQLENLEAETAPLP
I only need the number, in nM, no unit after it.

Query: Would you mind telling me what Ki value was observed for CCC(=O)N1C2CCC1CN(C/C=C(\C)c1ccccc1)CC2 (stereo not shown) ?
Result: 8.3

Query: Now consider CCC(=O)N1CCC2CCC(C1)N2CC=C(c1ccccc1)c1ccccc1 (stereo not shown) .
Result: 10.7

Query: Request: CCC(=O)N1C2CCCC1CN(C/C=C(\C)c1ccccc1)CC2 (stereo not shown)
Result: 40

Query: Same for CCC(=O)N1CCC2CCC(C1)N2C/C=C(\C)c1ccc(Cl)c(Cl)c1 (stereo not shown)
Result: 7

Query: Ok, now CCC(=O)N1C2CCC1CN(CC=C(c1ccccc1)c1ccccc1)CC2 (stereo not shown)
Result: 20.7

Query: Could you do the same for CCC(=O)N1C2CCC1CN(C/C=C(\C)c1ccc(Cl)c(Cl)c1)CC2 (stereo not shown) , please?
Result: 4.1

Query: And then CCC(=O)N1CCC2CCC(C1)N2C/C=C(\C)c1ccccc1 (stereo not shown) , what is it?
Result: 5.7

###

So I've got a bunch of compounds here, and I need their pKi values.
Biological target: opioidergic receptors δ (Mus musculus, UniProt P32300)
Construct: from tissue; host or cells: CD1 mouse total brain (excluding the cerebellum) membranes
Sequence (P32300 whole entry): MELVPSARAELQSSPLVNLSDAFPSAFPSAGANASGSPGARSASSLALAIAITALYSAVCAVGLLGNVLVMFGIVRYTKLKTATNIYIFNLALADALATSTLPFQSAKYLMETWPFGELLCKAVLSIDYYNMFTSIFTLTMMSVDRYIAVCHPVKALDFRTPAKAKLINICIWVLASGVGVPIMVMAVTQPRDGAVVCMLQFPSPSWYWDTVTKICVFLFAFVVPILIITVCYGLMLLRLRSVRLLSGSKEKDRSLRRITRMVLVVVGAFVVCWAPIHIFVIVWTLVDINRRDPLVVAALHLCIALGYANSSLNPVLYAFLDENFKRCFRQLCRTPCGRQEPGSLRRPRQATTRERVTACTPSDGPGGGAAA
Test: Radioreceptorial binding, receptors δ ([3H]-DPDPE displacement, brain membranes)
Parameters: species or system mice
Conditions: 1 nM [3H]-DPDPE, 25° C.
Give only the number. pKi is defined as minus log10 of concentration in molar units.

Query: Requested field: pKi. Item: CCC(=O)N1C2CCCC1CN(C/C=C(\C)c1ccc(Cl)c(Cl)c1)CC2 (stereo not drawn)
Result: 5.49

Query: // repeat for CCC(=O)N1C2CCC1CN(CC=C(c1ccccc1)c1ccccc1)CC2 (stereo not drawn) and report
Result: 6.48

Query: Entry CCC(=O)N1C2CCC1CN(C/C=C(\C)c1ccccc1)CC2 (stereo not drawn) please
Result: 6.03

Query: Further, for CCC(=O)N1C2CCCC1CN(CC=C(c1ccccc1)c1ccccc1)CC2 (stereo not drawn) ?
Result: 5.77

Query: # repeat for CCC(=O)N1CCC2CCCC(C1)N2CC=C(c1ccccc1)c1ccccc1 (stereo not drawn)
Result: 6.73

Query: Another compound to look at: CCC(=O)N1C2CCC1CN(C/C=C(\C)c1ccc(Cl)c(Cl)c1)CC2 (stereo not drawn)
Result: 6.07

Query: Can you check CCC(=O)N1CCC2CCC(C1)N2C/C=C(\C)c1ccccc1 (stereo not drawn) next?
Result: 6.37

Query: Try the compound CCC(=O)N1CCC2CCCC(C1)N2C/C=C(\C)c1ccccc1 (stereo not drawn)
Result: 5.78

Query: Please do the same for CCC(=O)N1CCC2CCCC(C1)N2C/C=C(\C)c1ccc(Cl)c(Cl)c1 (stereo not drawn) as well.
Result: 5.95

Query: Proceed to CCC(=O)N1CCC2CCC(C1)N2C/C=C(\C)c1ccc(Cl)c(Cl)c1 (stereo not drawn)
Result: 6.06

Query: Another compound to check: CCC(=O)N1C2CCCC1CN(C/C=C(\C)c1ccccc1)CC2 (stereo not drawn)
Result: 5.41

Query: Cool, now CCC(=O)N1CCC2CCC(C1)N2CC=C(c1ccccc1)c1ccccc1 (stereo not drawn)
Result: 6.85
